Molecular target: T1, NHERF-1 PDZ2 (human, UniProt O14745)
T1 chain: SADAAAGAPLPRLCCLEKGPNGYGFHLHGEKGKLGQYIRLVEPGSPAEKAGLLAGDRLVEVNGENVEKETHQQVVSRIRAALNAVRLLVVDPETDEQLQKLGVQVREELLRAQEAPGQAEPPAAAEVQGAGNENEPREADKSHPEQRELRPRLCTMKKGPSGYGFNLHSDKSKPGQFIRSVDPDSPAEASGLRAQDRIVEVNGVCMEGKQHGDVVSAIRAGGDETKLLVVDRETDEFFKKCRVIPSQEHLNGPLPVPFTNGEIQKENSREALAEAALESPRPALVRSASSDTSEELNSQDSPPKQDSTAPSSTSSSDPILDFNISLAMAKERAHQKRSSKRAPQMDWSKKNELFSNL
Assay: FP, competition
Where no end group is shown, it is not given here.
measured_endpoint: Ki

>  <binder>
ANSRWQVTRV

>  <result>
0.208 mM

$$$$
>  <binder>
ANSRLPTSK(Ac)I [ANSRLPTS[Ac-K]I]

>  <result>
> 5 mM

$$$$
>  <binder>
ANSRLPTSII [iCAL42 ANSRLPTSII]

>  <result>
> 5 mM

$$$$
>  <binder>
ANSRLPTSKI [ANSRLPTS[K-AEBA]I]

>  <result>
> 5 mM

$$$$
